Header: pIC50 / 3',5'-cyclic-AMP phosphodiesterase 4B (Homo sapiens, UniProt Q07343) / multiple publications
Please keep in mind that pIC50 is minus log10 of the molar concentration; only the number is needed.

Reference set (3 entries):
compound	pIC50
COc1ccc(-c2nc3c(c(Nc4ccc(CC(=O)O)cc4)n2)SCCC3)c(F)c1F	6.85
CN(Cc1ccccc1)c1nc2sc3c(NCCN4CCOCC4)ncnc3c2c2c1CCC(C)(C)C2	6.06
COc1ccc(C2=Nc3c(C(C)(C)C)nn(CCO)c3C(=O)NC2)cc1-c1cnn(C)c1	6.96

# get_value(readout='pIC50', item= O=C(Nc1nc2ccc(C(F)(F)F)cc2s1)c1ccc(OC(F)F)c(OCC2CC2)c1 ) 8.28

// same read-out, input: C=CCc1c(-c2cccc(NS(=O)(=O)c3ccc(OC)cc3)c2)oc(=O)c2ccccc12 5.48

Try this compound too: COc1ccc(C2=NN(CCCCOc3ccc(C4=NNC(=O)C4(C)C)c(F)c3F)C(=O)CC2C)c2cc(C(F)(F)F)nn12 (stereo not given) 8.51
